Data credit: patent US20090208538A1

# target under test: T1, HLA-A*0201 (human)
# T1 construct: also called HLA-A2.1; HLA A2.1
# assay name: iTopia net score;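 further: combined score from peptide binding, ED₅₀ and half-life of peptide complexes with plate-bound HLA-A2 molecules, computed by a proprietary formula in iTopia software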
iScore reference

binder: ALFKEIFSC [cdr2 424-432 ALFKEIFSC]
iScore: 0.546
--
binder: LASVNPEPV [cdr2 405-413 LASVNPEPV]
iScore: 0.244
--
binder: LSLERQKRV [cdr2 209-217 LSLERQKRV]
iScore: 0.139
--
binder: LLHEVDTQY [cdr2 345-353 LLHEVDTQY]
iScore: 0.204
--
binder: NIDHLQSQV [cdr2 125-133 NIDHLQSQV]
iScore: 0.166
--
binder: RQHFVYDHV [cdr2 168-176 RQHFVYDHV]
iScore: 0.304
--
binder: HLKKTVTML [cdr2 197-205 HLKKTVTML]
iScore: 0.199
--
binder: QAQLSLERQ [cdr2 206-214 QAQLSLERQ]
iScore: 0.174
